meta.source: paper PMC10906223

# assayOverview: Microsomal stability assay, CD-1 mouse liver microsomes
# Type: in vitro ADME
# conditionContext: CD-1, mouse, liver microsomes
Provide the reported half-life at 1 µM of each item.
Answers are plain numbers, in min.

[[record]]
chemicalstructure = "C[C@]12CC[C@H]3[C@@H](CCC4=CC(=O)CC[C@@]43C)[C@@H]1CC[C@@H]2O"
reportedproperty = "half-life at 1 µM"
measurementunit = "min"
testvalue = 5.4


Then this compound:
Ask | Endpoint output: half-life at 1 µM of `CC(=O)OCC(N)(COC(C)=O)COC(C)=O` . Value?
Reply | 93.6

###

# assayOverview: Microsomal stability assay, CD-1 mouse liver microsomes
# Assay type: in vitro ADME
# conditionContext: CD-1, mouse, liver microsomes; read-out: Intrinsic microsomal clearance
reportedProperty: microsomal CLint at 1 µM (µL/min/mg)
One number for each entry, in µL/min/mg.

[[record]]
chemicalstructure = "CC(=O)OCC(N)(COC(C)=O)COC(C)=O"
reportedproperty = "microsomal CLint at 1 µM"
testvalue = 14.8


Then this compound:
Ask | Endpoint output: microsomal CLint at 1 µM of `C[C@]12CC[C@H]3[C@@H](CCC4=CC(=O)CC[C@@]43C)[C@@H]1CC[C@@H]2O` . Value?
Reply | 257
